targetEntity: cyclophilin A (Homo sapiens (Human))
Sequence (P62937 whole entry, species assumed): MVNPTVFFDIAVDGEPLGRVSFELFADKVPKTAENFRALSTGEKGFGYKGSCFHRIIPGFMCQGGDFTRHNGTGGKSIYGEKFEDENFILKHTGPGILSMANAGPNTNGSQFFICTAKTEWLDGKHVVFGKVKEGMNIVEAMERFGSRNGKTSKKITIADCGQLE
testSummary: Functional peptidyl prolyl isomerase (PPIase) spectrophotometric assay, cyclophilin A
assayConditions: first value of CypA/D cell
The entries below come with measured pKi values attached.
pKi is defined as minus the log10 of a concentration measured in mol/L.

INSERT INTO assay_data (molecule, targetentity, propertyname, value) VALUES
  ('CC(C)[C@@H]1OC(=O)C(C)(C)/C=C/c2ccc3ncc(nc3c2)N(C)NC(=O)[C@@H]2CCCN(N2)C(=O)[C@H](C)NC1=O', 'cyclophilin A (Homo sapiens (Human))', 'pKi', 8.48);

Query :: What value of pKi has been reported for the following molecule? "CC(C)[C@@H]1CC(=O)C(C)(C)/C=C/c2ccc3ccc(nc3c2)N(C)NC(=O)[C@@H]2CCCN(N2)C(=O)[C@H](C)NC1=O"
Result :: 7.76

Query :: Endpoint output: pKi of "CC(C)[C@@H]1OC(=O)C(C)(C)/C=C/c2ccc3ccc(nc3c2)N(C)NC(=O)[C@@H]2CCCN(N2)C(=O)[C@H](CCC(=O)NCc2cnn(C)c2)NC1=O" . Value?
Result :: 7.80

Query :: So what's the measured pKi for this one? "CC(C)[C@@H]1OC(=O)C(C)(C)/C=C/c2ccc3ccc(nc3c2)N(C)NC(=O)[C@@H]2CCCN(N2)C(=O)[C@H](CCC(=O)N[C@H](C)c2ccccc2)NC1=O"
Result :: 8.44

Query :: Looking for the measured pKi of "CC(C)[C@@H]1NC(=O)C(C)(C)/C=C/c2ccc3ccc(nc3c2)N(C)NC(=O)[C@@H]2CCCN(N2)C(=O)[C@H](C)NC1=O" , can you help?
Result :: 7.89

Query :: So what does the record say about pKi for CNC(=O)c1ccc(CC2OC(=O)C(C)(C)/C=C/c3ccc4ccc(nc4c3)N(C)NC(=O)[C@@H]3CCCN(N3)C(=O)[C@H](C)NC2=O)cc1 (single isomer, unassigned) [Compound (39)] ?
Result :: 7.52

Query :: Recorded pKi of "CC(C)[C@@H]1OC(=O)C2(/C=C/c3ccc4ccc(nc4c3)N(C)N(C)C(=O)[C@@H]3CCCN(N3)C(=O)[C@H](C)NC1=O)COCOC2" , please.
Result :: 7.64

Query :: For the molecule shown here, "CC(=O)N1NC(=O)[C@@H]2CCCN(N2)C(=O)[C@H](C)NC(=O)[C@H](C(C)C)OC(=O)C(C)(C)/C=C/c2ccc3ccc1nc3c2" , give the reported pKi.
Result :: 8.28

Query :: Entry C[C@@H]1NC(=O)[C@@H](CC2CCCNC2)OC(=O)C(C)(C)/C=C/c2ccc3ccc(nc3c2)N(C)N(C)C(=O)[C@@H]2CCCN(N2)C1=O (single isomer, unassigned) [Compound (32)] has what pKi?
Result :: 5.66

Query :: What pKi value was documented for this molecule, C[C@@H]1NC(=O)[C@H](CC2CCCNC2)OC(=O)C(C)(C)/C=C/c2ccc3ccc(nc3c2)N(C)NC(=O)[C@@H]2CCCN(N2)C1=O (stereo partly shown) ?
Result :: 6.53

Query :: Data request, read-out pKi, for "CC(C)NC(=O)c1ccc(C[C@@H]2OC(=O)C(C)(C)/C=C/c3ccc4ccc(nc4c3)N(C)NC(=O)[C@@H]3CCCN(N3)C(=O)[C@H](C)NC2=O)cc1"
Result :: 7.57

Taken from patent US20250243219A1.
